- target or system: human CCR9 receptor (Homo sapiens)
- Construct: expressed in transfected cells
- Sequence (P51686 whole entry): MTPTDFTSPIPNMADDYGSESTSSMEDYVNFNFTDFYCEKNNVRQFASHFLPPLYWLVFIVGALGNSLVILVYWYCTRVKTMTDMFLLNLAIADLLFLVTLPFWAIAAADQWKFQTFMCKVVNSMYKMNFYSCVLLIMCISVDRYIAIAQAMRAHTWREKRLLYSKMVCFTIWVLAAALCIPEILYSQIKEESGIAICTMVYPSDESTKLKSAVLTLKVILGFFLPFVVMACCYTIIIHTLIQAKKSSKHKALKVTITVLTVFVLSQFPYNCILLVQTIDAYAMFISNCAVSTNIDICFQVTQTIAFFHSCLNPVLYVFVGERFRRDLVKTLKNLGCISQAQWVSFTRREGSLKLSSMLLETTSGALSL
- experiment: CCR9 FLIPR/FlexStation Assay (inhibition of TECK induced calcium mobilization)
- Assay type: cell-based
- protocol conditions: CCR9 antagonist activity; TECK induced calcium mobilization in CCR9-Flp-CHO cells stably over expressing human CCR9; rhTECK at EC70; read-out: Binding IC50
- Method: Exemplary methods are described in US Publication Nos. US2004/0180892 and US2005/0049286, which are incorporated herein by reference. […] 10 mM stock compounds in DMSO are prepared and diluted in DMSO to 1 mM. […] Data is analyzed using XLfit3 software to calculate IC50 value of antagonist activity for each compound. CCR9 antagonist activity of exemplary compounds was determined using CCR9 FLIPR/FlexStation Assay as described in Section 4.4 and is provided in Table 1 below. […]
Where a name gives a salt, the structure may show the parent alone.
IC50 values, listed per item
quantity kind: IC50

INSERT INTO results (compound, test_result) VALUES
  ('CC(C)(C)c1ccc(S(=O)(=O)Nc2ccsc2C(=O)O)c(C#N)c1 [Example 10, disodium salt]', '≤ 100 nM'),
  ('CC(C)(C)c1ccc(S(=O)(=O)Nc2ccsc2C(=O)O)c(/C=C/C(=O)O)c1 [Example 30, trisodium salt]', '> 500 nM'),
  ('COc1cc(C(C)(C)C)ccc1S(=O)(=O)Nc1ccsc1C(=O)O [Example 8, disodium salt]', '≤ 100 nM'),
  ('CC(C)(C)c1ccc(S(=O)(=O)Nc2ccsc2C(=O)O)c(Oc2ccccc2)c1 [Example 28, disodium salt]', '> 500 nM'),
  ('O=C(O)c1sccc1NS(=O)(=O)c1ccc(Br)cc1 [Example 20, disodium salt]', '> 500 nM'),
  ('O=C(O)c1sccc1NS(=O)(=O)c1ccc(C2CCCC2)cc1F [Example 36, disodium salt]', '≤ 100 nM'),
  ('O=C(O)c1sccc1NS(=O)(=O)c1ccc(OC(F)(F)F)cc1Cl [Example 50, disodium salt]', '≤ 100 nM'),
  ('CCCc1cc(C(C)(C)C)ccc1S(=O)(=O)Nc1ccsc1C(=O)O [Example 56, disodium salt]', '≤ 100 nM');
